Collected set of IC50 measured with Beta-secretase 1 (Homo sapiens) across studies.
Mark 1.0 for IC50 under 9 nM, 0.0 if at or over.

Req: Confirm or reject: IC50 of NC1=NC2(c3cc(-c4cccnc4F)ccc3Oc3c2cc(-c2ccnc(F)c2)nc3F)c2ccccc21 (racemic) lies strictly below 9 nM
Resp: 1.0

Req: Confirm or reject: IC50 of `CC(=O)c1cc([C@@]2(c3ccccc3)N=C(N)N(C)C2=O)cn1C` lies strictly below 9 nM
Resp: 0.0

Req: Confirm or reject: IC50 of NC1=NC2(c3cc(-c4cccnc4F)ccc3Oc3c2cc(C2=CCOCC2)nc3F)c2ccccc21 (racemic) lies strictly below 9 nM
Resp: 1.0

Req: Confirm or reject: IC50 of `NC1=N[C@@]2(CCO1)c1cc(NC(=O)c3ccc(F)cn3)ccc1Oc1c2cc(C2=CCCOC2)nc1F` lies strictly below 9 nM
Resp: 0.0

Req: Confirm or reject: IC50 of COC(C)c1ccc([C@H]2C[C@H]3CSC(N)=N[C@@]3(c3ccc(F)cc3F)CO2)cc1 (some centres unmarked) lies strictly below 9 nM
Resp: 0.0

Req: Confirm or reject: IC50 of `N#Cc1cccc(-c2ccc3c(c2)[C@@]2(CCOC(N)=N2)c2cc(C4=CCOCC4)nc(F)c2O3)c1` lies strictly below 9 nM
Resp: 1.0

Req: Confirm or reject: IC50 of Cc1cc(C)cc(C2(c3cc(F)cc(F)c3)N=C(N)N(C)C2=O)c1 (centres unmarked) lies strictly below 9 nM
Resp: 0.0

* * *

Collected set of IC50 measured with Beta-secretase 1 (Homo sapiens) across studies.
Write down the numeric answer in nM and omit the unit.

Req: Quickly give me recorded IC50 for `[2H]C1([2H])OC(N)=N[C@]12c1cc(-c3cncc(Cl)c3)ccc1C[C@@]21CC[C@H](OC)[C@@H](C)C1`
Resp: 6.8

Req: Quickly give me recorded IC50 for `COc1ccc(C(=O)Nc2ccc3c(c2)[C@@]2(CCSC(N)=N2)c2cc(-c4ccnc(F)c4)nc(F)c2O3)nc1`
Resp: 0.4

Req: Quickly give me recorded IC50 for `NC1=N[C@]2(CCO1)c1cc(-c3cccnc3)ccc1Oc1c(F)cc(C3=CCCOC3)cc12`
Resp: 616

Req: Quickly give me recorded IC50 for `NC(N)=NC(=O)Cc1c(-c2ccccc2Cl)csc1-c1ccc(Oc2ccccc2)cc1`
Resp: 1600

Req: Quickly give me recorded IC50 for `C[C@H]1C[C@H]2COC(N)=N[C@@]2(c2nc(NC(=O)c3ccc(OC(F)F)cn3)cs2)CO1`
Resp: 214

Req: Quickly give me recorded IC50 for CC1(C)CCC([C@H]2C[C@H]3CSC(N)=N[C@@]3(c3ccc(F)cc3F)CO2)O1 (stereo partly shown)
Resp: 184

Req: Quickly give me recorded IC50 for `NC1=N[C@@]2(COCC1)c1cc(Br)ccc1Oc1cnc(Cl)cc12`
Resp: 3830

Req: Quickly give me recorded IC50 for `NC1=N[C@@]2(COC1)c1cc(-c3cncc(F)c3)ccc1Oc1cnc(N3CCC(F)(F)C3)cc12`
Resp: 0.6

Req: Quickly give me recorded IC50 for `NC1=N[C@@]2(COC1)c1cc(-c3cncnc3)ccc1Oc1cnc(-c3ccnc(F)c3)cc12`
Resp: 0.5

Req: Quickly give me recorded IC50 for `NC1=N[C@@]2(c3ccc(F)cc3F)CO[C@@H](c3ccc4c(c3)CCO4)C[C@H]2CS1`
Resp: 6

Req: Quickly give me recorded IC50 for `NC1=N[C@@]2(CCO1)c1cc(-c3cccnc3F)ccc1Oc1ncc(C3=CCCOC3)cc12`
Resp: 11.6

Req: Quickly give me recorded IC50 for `CC(C)COc1cc2c(cn1)Oc1ccc(-c3cncc(F)c3)cc1[C@@]21COCC(N)=N1`
Resp: 0.5

* * *

Collected set of pIC50 measured with Beta-secretase 1 (Homo sapiens, UniProt P56817) across studies.
Lab note — pIC50 values are minus log10 of concentrations in M.

Req: Quickly give me recorded pIC50 for [2H]C1([2H])CC2(N=C(N)O1)c1cc(-c3cncnc3)ccc1C[C@]21CC[C@@H](OC)CC1 (some centres unmarked)
Resp: 6.86

Req: Quickly give me recorded pIC50 for `NC1=N[C@]2(c3cc(-c4cccnc4F)ccc3Oc3c(F)cc(-c4ccnc(F)c4)cc32)c2nccn21`
Resp: 8.00

Req: Quickly give me recorded pIC50 for `Cc1ccc(-c2cc(F)c3c(c2)[C@]2(N=C(N)n4ccnc42)c2cc(-c4cccnc4F)ccc2O3)cc1`
Resp: 6.94

Req: Quickly give me recorded pIC50 for NC1=N[C@]2(COC1)c1cc(Br)ccc1Oc1cnc(Cl)cc12 (single isomer, unassigned)
Resp: 4.64

Req: Quickly give me recorded pIC50 for `COc1cc([C@H]2C[C@H]3CSC(N)=N[C@@]3(c3ccc(F)cc3F)CO2)ccn1`
Resp: 6.42

* * *

Collected set of IC50 measured with Beta-secretase 1 (Homo sapiens) across studies.
Write down the numeric answer in nM and omit the unit.

Req: Quickly give me recorded IC50 for `COc1cnc2c(Nc3ccc4c(c3)[C@@]3(CCOC(N)=N3)c3cc(C5CC5)ncc3O4)nccc2n1`
Resp: 6.9

Req: Quickly give me recorded IC50 for `C[C@H]1C[C@H]2[C@@H](CF)OC(N)=N[C@@]2(c2nc(NC(=O)c3ccc(OC(F)F)cn3)cs2)CO1`
Resp: 270

Req: Quickly give me recorded IC50 for `N#Cc1cccc(-c2ccc3c(c2)[C@@]2(CCOC(N)=N2)c2cc(-c4ccnc(F)c4)nc(F)c2O3)c1`
Resp: 0.7

Req: Quickly give me recorded IC50 for `NC1=N[C@@]2(CCO1)c1cc(-c3cccnc3F)ccc1Oc1cnc(-c3cncc(F)c3)cc12`
Resp: 3.8

Req: Quickly give me recorded IC50 for `Cc1nc([C@H]2C[C@H]3CSC(N)=N[C@@]3(c3ccc(F)cc3F)CO2)no1`
Resp: 341

* * *

Collected set of pIC50 measured with Beta-secretase 1 (Homo sapiens, UniProt P56817) across studies.
pIC50: −log10 of the molar value.
Cut-off 7 on pIC50, inclusive. At or above means 1; below means -1.

Req: Reported pIC50 at or above 7? `NC1=N[C@]2(CCO1)c1cc(-c3cccnc3F)ccc1Oc1cnc(-c3cccnc3F)cc12`
Resp: 1

Req: Reported pIC50 at or above 7? `NC1=N[C@@]2(CCO1)c1cc(-c3cccnc3F)ccc1Oc1cnc(-c3ccnc(F)c3)cc12`
Resp: 1

Req: Reported pIC50 at or above 7? `COc1cnc2c(Nc3ccc4c(c3)[C@@]3(CCSC(N)=N3)c3cc(-c5ccnc(F)c5)nc(F)c3O4)nccc2c1`
Resp: 1

Req: Reported pIC50 at or above 7? `NC1=N[C@@]2(CCO1)c1cc(NC(=O)c3ccc(F)cn3)ccc1Oc1c2cc(C2=CCOCC2)nc1F`
Resp: 1

Req: Reported pIC50 at or above 7? COc1cc(C#N)cc(-c2ccc3c(c2)C2(COC(N)=N2)C(C)(C2CCOCC2)C3)c1 (stereo not drawn)
Resp: -1

Req: Reported pIC50 at or above 7? `CC(C)(C)C#Cc1cnc2c(c1)[C@]1(COCC(N)=N1)c1cc(-c3cncnc3)c(F)cc1O2`
Resp: 1

Req: Reported pIC50 at or above 7? `NC1=N[C@@]2(CCO1)c1cc(-c3cccnc3)ccc1Oc1c(F)cc(C3=CCCOC3)cc12`
Resp: 1

Req: Reported pIC50 at or above 7? `N#Cc1coc([C@H]2C[C@H]3CSC(N)=N[C@@]3(c3ccc(F)cc3F)CO2)n1`
Resp: -1

Req: Reported pIC50 at or above 7? `C[C@H]1C[C@H]2CSC(N)=N[C@@]2(c2nc(NC(=O)c3coc(CF)n3)cs2)CO1`
Resp: 1

Req: Reported pIC50 at or above 7? `[2H]C1([2H])OC(N)=N[C@]12c1cc(-c3cc(F)cc(C#N)c3)ccc1C[C@@]21CC[C@H](OC)[C@@H](C)C1`
Resp: -1

Req: Reported pIC50 at or above 7? `NC1=N[C@]2(c3ccc(F)cc3F)CO[C@H](CC3CC3)C[C@@H]2CS1`
Resp: -1

Req: Reported pIC50 at or above 7? `NC1=N[C@@]2(COC1)c1cc(-c3cccnc3F)ccc1Oc1cnc([C@@H]3CCCOC3)cc12`
Resp: 1

Req: Reported pIC50 at or above 7? [2H]C1([2H])OC(N)=NC12c1cc(-c3cc(C#N)cc(OC)c3)ccc1C[C@@]21CC[C@H](O)[C@@H](C)C1 (stereo partly drawn)
Resp: -1

Req: Reported pIC50 at or above 7? `COc1ccc(C(=O)Nc2ccc3c(c2)[C@@]2(CCOC(N)=N2)c2cc(C4=CCOCC4)nc(F)c2O3)nc1`
Resp: 1

Req: Reported pIC50 at or above 7? `CC1(COc2cc(F)c3c(c2)[C@@]2(COCC(N)=N2)c2cc(-c4cccnc4F)ccc2O3)COC1`
Resp: 1

Req: Reported pIC50 at or above 7? `Cc1ccc([C@H]2C[C@H]3CSC(N)=N[C@@]3(c3ccc(F)cc3F)CO2)cc1F`
Resp: 1

Req: Reported pIC50 at or above 7? `CCC(=O)c1cc([C@@]2(c3cccc(-c4cccnc4F)c3)N=C(N)N(C)C2=O)cn1CCF`
Resp: -1

Req: Reported pIC50 at or above 7? `CC(C)(C)COc1cc(F)c2c(c1)[C@@]1(COCCC(N)=N1)c1cc(-c3cccnc3F)ccc1O2`
Resp: -1

Req: Reported pIC50 at or above 7? `NC1=N[C@@]2(CCO1)c1cc(-c3cccnc3F)ccc1Oc1c2cc(C2=CCCOC2)nc1F`
Resp: 1

Req: Reported pIC50 at or above 7? NC1=NC2(c3cc(-c4cccnc4F)ccc3Oc3c2cc(C2=CCCOC2)nc3F)c2ccccc21 (racemic)
Resp: 1

Req: Reported pIC50 at or above 7? CC(C)NCc1cc(C2(c3cccc(-c4cccnc4F)c3)N=C(N)N(C)C2=O)cn1CCF (stereo not drawn)
Resp: -1

Req: Reported pIC50 at or above 7? `NC1=N[C@@]2(c3ccc(F)cc3F)CO[C@@H](c3ccc4nccn4c3)C[C@H]2CS1`
Resp: -1

Req: Reported pIC50 at or above 7? `COc1cnc2c(Nc3ccc4c(c3)[C@@]3(CCSC(N)=N3)c3cc(C5=CCCOC5)ncc3O4)nccc2c1`
Resp: 1
